ASSAYED TARGET: EGFR-L858R/T790M (Homo sapiens, UniProt P00533, L858R/T790M)
Construct: purchased Invitrogen PV4879
Sequence (P00533 25-1210 T790M/L858R): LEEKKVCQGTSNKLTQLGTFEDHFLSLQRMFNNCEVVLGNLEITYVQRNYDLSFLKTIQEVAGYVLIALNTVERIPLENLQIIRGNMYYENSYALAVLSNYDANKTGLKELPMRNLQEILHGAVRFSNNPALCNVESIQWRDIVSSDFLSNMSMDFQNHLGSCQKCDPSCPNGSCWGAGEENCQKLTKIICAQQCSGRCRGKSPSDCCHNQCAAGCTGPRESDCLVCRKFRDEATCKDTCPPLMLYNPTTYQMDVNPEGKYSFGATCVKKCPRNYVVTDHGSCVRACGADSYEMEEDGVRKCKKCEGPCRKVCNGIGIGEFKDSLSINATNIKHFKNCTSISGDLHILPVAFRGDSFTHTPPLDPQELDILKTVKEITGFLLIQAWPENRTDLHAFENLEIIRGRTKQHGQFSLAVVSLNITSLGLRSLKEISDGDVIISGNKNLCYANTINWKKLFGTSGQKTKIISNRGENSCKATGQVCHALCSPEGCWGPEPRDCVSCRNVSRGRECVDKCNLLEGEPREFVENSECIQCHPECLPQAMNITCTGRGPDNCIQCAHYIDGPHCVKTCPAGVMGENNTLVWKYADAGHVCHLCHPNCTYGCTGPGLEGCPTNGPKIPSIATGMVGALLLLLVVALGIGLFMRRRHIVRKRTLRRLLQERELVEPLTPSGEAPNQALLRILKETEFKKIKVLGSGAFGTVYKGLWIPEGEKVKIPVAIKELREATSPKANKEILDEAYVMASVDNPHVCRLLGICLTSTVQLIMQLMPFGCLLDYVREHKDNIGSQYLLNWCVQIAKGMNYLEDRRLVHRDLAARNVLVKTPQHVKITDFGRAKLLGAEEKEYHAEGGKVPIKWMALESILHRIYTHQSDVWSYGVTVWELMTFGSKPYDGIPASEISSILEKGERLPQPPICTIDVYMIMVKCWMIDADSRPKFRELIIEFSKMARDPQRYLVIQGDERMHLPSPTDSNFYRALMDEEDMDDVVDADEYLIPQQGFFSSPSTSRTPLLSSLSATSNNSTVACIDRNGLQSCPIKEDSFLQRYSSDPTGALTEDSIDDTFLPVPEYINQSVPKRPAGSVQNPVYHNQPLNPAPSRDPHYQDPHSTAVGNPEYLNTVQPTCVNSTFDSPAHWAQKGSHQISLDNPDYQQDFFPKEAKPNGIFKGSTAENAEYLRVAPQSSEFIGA
ASSAY TEXT: Kinase activity test (FRET), EGFR T790M/L858R
Type: biochemical
COND: read-out: IC50 of inhibitory activity on EGFR-T790M/L858R kinase
PARAMETER MEASURED: IC50
Reply with a number, then the unit it belongs to.

Item C=CC(=O)Nc1cccc(-n2c(=O)cnc3cnc(Nc4ccc(N5CCN(C)CC5)c(OC)c4)nc32)c1 has what recorded IC50?
3.9 nM

====

Tested on: H1975 cells (EGFR L858R/T790M)
ASSAY TEXT: Inhibitory activity on cell proliferation, H1975
Format: cell-based
COND: Homo sapiens, NCI-H1975; H1975, 72 hours; read-out: Inhibitory activity on proliferation of cells (IC50, μM) H1975
Classify: True when IC50 is strictly less than 0.06 µM; False when IC50 is not.

Take a look at these entries with their results.
{"columns": ["COMPOUND", "CLASS LABEL"],
 "data": [
  ["C=CC(=O)Nc1cccc(-n2c(=O)cnc3cnc(Nc4ccc(N5CCC(N(C)C)CC5)cc4OC)nc32)c1 [Compound 12]", "True"],
  ["C=CC(=O)Nc1cccc(-n2c(=O)c(C(C)C)nc3cnc(Nc4ccc(N5CCN(C)CC5)cc4)nc32)c1 [Compound 13]", "True"],
  ["C=CC(=O)N1CC[C@H](n2c(=O)c(-c3ccccc3)nc3cnc(Nc4ccc(N5CCN(C)CC5)c(C)c4)nc32)C1 [Compound 25]", "True"],
  ["C=CC(=O)Nc1cccc(-n2c(=O)c(C(F)(F)F)nc3cnc(Nc4ccc(N5CCN(C)CC5)c(OC)c4)nc32)c1 [Compound 33]", "False"],
  ["C=CC(=O)Nc1cccc(-n2c(=O)cnc3cnc(Nc4ccc(N5CCN(CCO)CC5)cc4OC)nc32)c1 [Compound 11]", "False"]
]}

Just wondering, is IC50 of C=CC(=O)Nc1cccc(-n2c(=O)c(-c3ccccc3)nc3cnc(Nc4ccc(N(C)CCN(C)C)cc4OC)nc32)c1 [Compound 20] below 0.06 µM?
True

Thanks! And C=CC(=O)Nc1cccc(-n2c(=O)c(-c3ccccc3)nc3cnc(Nc4ccc(N5CCN(C)CC5)cc4OC)nc32)c1 [Compound 14] ?
True

Thanks! And C=CC(=O)N1CC[C@H](n2c(=O)c(C3CCCCC3)nc3cnc(Nc4ccc(N5CCN(C)CC5)cc4OC)nc32)C1 [Compound 50] ?
False

Thanks! And C=CC(=O)Nc1cccc(-n2c(=O)c(C(C)C)nc3cnc(Nc4ccc(N(C)CCN(C)C)cc4OC)nc32)c1 [Compound 19] ?
False

Thanks! And C=CC(=O)N1CCC[C@@H](n2c(=O)cnc3cnc(Nc4ccc(N5CCN(C)CC5)cc4OC)nc32)C1 [Compound 22] ?
False

Thanks! And C=CC(=O)N1CCC[C@H](Cn2c(=O)c(-c3ccccc3)nc3cnc(Nc4ccc(N5CCN(C)CC5)cc4OC)nc32)C1 [Compound 44] ?
False

Thanks! And C=CC(=O)Nc1cccc(-n2c(=O)c(-c3ccc(F)cc3)nc3cnc(Nc4ccc(N5CCN(C)CC5)cc4OC)nc32)c1 [Compound 52] ?
True

Thanks! And C=CC(=O)Nc1cccc(-n2c(=O)cnc3cnc(Nc4ccc(N5CCN(C(C)=O)CC5)cc4OC)nc32)c1 [Compound 7] ?
False

Thanks! And C=CC(=O)Nc1cccc(-n2c(=O)c(-c3ccccc3)nc3cnc(Nc4ccc(N5CCN(C)CC5)c(OC)c4)nc32)c1 [Compound 42] ?
True

Thanks! And Cc1cc(Nc2ncc3nc(-c4ccccc4)c(=O)n([C@H]4CCN(C(=O)/C=C/CN(C)C)C4)c3n2)ccc1N1CCN(C)CC1 [Compound 29] ?
False

Thanks! And COc1cc(N2CCN(C)CC2)ccc1Nc1ncc2ncc(=O)n(C3CCN(C(=O)/C=C/CN(C)C)CC3)c2n1 [Compound 30] ?
False

Thanks! And C=CC(=O)Nc1cccc(-n2c(=O)cnc3cnc(Nc4ccc(CCN5CCN(C)CC5)cc4)nc32)c1 [Compound 8] ?
False

Thanks! And COc1cc(N2CCN(C)CC2)ccc1Nc1ncc2nc(-c3ccccc3)c(=O)n([C@H]3CCN(C(=O)/C=C/CN(C)C)C3)c2n1 [Compound 31] ?
False

Thanks! And C=CC(=O)N1CC[C@H](n2c(=O)cnc3cnc(Nc4ccc(N5CCN(C)CC5)c(C)c4)nc32)C1 [Compound 34] ?
False

Thanks! And C=CC(=O)Nc1cccc(-n2c(=O)cnc3cnc(Nc4ccc(N5CCN(C)CC5)cc4OCCOC)nc32)c1 [Compound 10] ?
False

====

ASSAYED TARGET: EGFR-L858R/T790M (Homo sapiens, UniProt P00533, L858R/T790M)
Construct: purchased Invitrogen PV4879
ASSAY TEXT: Kinase activity test (FRET), EGFR T790M/L858R
Assay type: biochemical
COND: EGFR T790M/L858R; read-out: Inhibitory activity of EGFR on kinase (IC50, nM) T790M/L858R
Classify: Met when IC50 is strictly less than 9 nM; Not met when IC50 is not.

Take a look at these entries with their results.
{"columns": ["SUBSTANCE SMILES", "ASSAYED TARGET", "CLASS LABEL"],
 "data": [
  ["C=CC(=O)N1CC[C@H](n2c(=O)c(-c3ccccc3)nc3cnc(Nc4ccc(N(C)CCN(C)C)c(OC)c4)nc32)C1", "EGFR-L858R/T790M (Homo sapiens, UniProt P00533, L858R/T790M)", "Not met"],
  ["C=CC(=O)Nc1cccc(-n2c(=O)c(C3CCCCC3)nc3cnc(Nc4ccc(N5CCN(C)CC5)cc4OC)nc32)c1", "EGFR-L858R/T790M (Homo sapiens, UniProt P00533, L858R/T790M)", "Met"],
  ["C=CC(=O)Nc1cccc(-n2c(=O)c(-c3ccc(F)c(F)c3)nc3cnc(Nc4ccc(N5CCN(C)CC5)cc4OC)nc32)c1", "EGFR-L858R/T790M (Homo sapiens, UniProt P00533, L858R/T790M)", "Met"],
  ["C=CC(=O)Nc1cccc(-n2c(=O)cnc3cnc(Nc4ccc(N5CCN(C)CC5)cc4OCOC)nc32)c1", "EGFR-L858R/T790M (Homo sapiens, UniProt P00533, L858R/T790M)", "Not met"]
]}

Just wondering, is IC50 of C=CC(=O)Nc1cccc(-n2c(=O)c(C(C)C)nc3cnc(Nc4ccc(N(C)CCN(C)C)cc4OC)nc32)c1 below 9 nM?
Not met

Thanks! And C=CC(=O)Nc1cccc(-n2c(=O)cnc3cnc(Nc4ccc(N(C)CCN(C)C)cc4OC)nc32)c1 ?
Met

Thanks! And C=CC(=O)Nc1cccc(-n2c(=O)c(-c3ccccc3)nc3cnc(Nc4cc(C)c(N5CCN(C)CC5)cc4OC)nc32)c1 ?
Met

Thanks! And Cc1cc(Nc2ncc3nc(-c4ccccc4)c(=O)n([C@H]4CCN(C(=O)/C=C/CN(C)C)C4)c3n2)ccc1N1CCN(C)CC1 ?
Not met

Thanks! And C=CC(=O)Nc1cccc(-n2c(=O)cnc3cnc(Nc4ccc(CCN5CCN(C)CC5)cc4)nc32)c1 ?
Met

Thanks! And C=CC(=O)Nc1cccc(-n2c(=O)c(-c3ccc(F)cc3)nc3cnc(Nc4ccc(N5CCN(C)CC5)cc4OC)nc32)c1 ?
Met

Thanks! And C=CC(=O)Nc1cccc(-n2c(=O)c(-c3cc(F)cc(F)c3)nc3cnc(Nc4ccc(N5CCN(C)CC5)cc4OC)nc32)c1 ?
Met

Thanks! And C=CC(=O)Nc1cccc(-n2c(=O)c(-c3ccccc3)nc3cnc(Nc4ccc(N5CCN(C)CC5)c(OC)c4)nc32)c1 ?
Not met

Thanks! And C=CC(=O)N1CCC[C@@H](n2c(=O)c(-c3ccccc3)nc3cnc(Nc4ccc(N5CCN(C)CC5)cc4OC)nc32)C1 ?
Not met

====

ASSAYED TARGET: EGFR-L858R/T790M (Homo sapiens, UniProt P00533, L858R/T790M)
Construct: purchased Invitrogen PV4879
ASSAY TEXT: Kinase activity test (FRET), EGFR T790M/L858R
Assay type: biochemical
COND: EGFR T790M/L858R; read-out: Inhibitory activity of EGFR on kinase (IC50, nM) T790M/L858R
Entries and their log10 of IC50
Please keep in mind that the values are log10 of IC50 expressed in nM.

Worked examples, 6 molecules total:
{"columns": ["MOLECULE", "log10 of IC50"],
 "data": [
  ["C=CC(=O)N1CC[C@H](n2c(=O)c(C(C)C)nc3cnc(Nc4ccc(N5CCN(C)CC5)cc4OC)nc32)C1 [Compound 26]", 2.75],
  ["C=CC(=O)Nc1cccc(-n2c(=O)cnc3cnc(Nc4ccc(N5CCN(CCO)CC5)cc4OC)nc32)c1 [Compound 11]", 0.86],
  ["C=CC(=O)Nc1cccc(-n2c(=O)c(-c3cccc(OC)c3)nc3cnc(Nc4ccc(N5CCN(C)CC5)cc4OC)nc32)c1 [Compound 57]", 0.26],
  ["C=CC(=O)Nc1cc(Nc2ncc3nc(C(C)C)c(=O)n(C)c3n2)c(OC)cc1N(C)CCN(C)C [Compound 23]", 2.97],
  ["C=CC(=O)Nc1cccc(-n2c(=O)cnc3cnc(Nc4ccc(N5CCC(N(C)C)CC5)cc4OC)nc32)c1 [Compound 12]", 0.79],
  ["C=CC(=O)N1CC[C@H](n2c(=O)c(C3CCCCC3)nc3cnc(Nc4ccc(N5CCN(C)CC5)cc4OC)nc32)C1 [Compound 50]", 1.94]
]}

Proceed to the following item.
Item C=CC(=O)N1CC[C@H](n2c(=O)c(-c3ccccc3)nc3cnc(Nc4ccc(N(C)CCN(C)C)c(C)c4)nc32)C1 [Compound 40] has what recorded log10 of IC50?
1.86
